Test system: HT-29
Assay: NCI tumour cell line growth inhibition, 48 h
Calls of active or inactive are those of the source. Rule as the data show it: active = GI50 up to about 1.1 µM and inactive = higher. Peptide text beside a SMILES is read from it. * marks the point of attachment. X27 = Clc1c(Cl)c(Cl)c(O*)c(Cl)c1Cl; Boc = CC(C)(C)OC(=O)*; OBn = c1ccc(CO*)cc1; Bn = c1ccc(C*)cc1
Reported Endpoint: GI50

| Compound | Test Value |
| --- | --- |
| O=C(CCN1CCCC1)c1ccc(Oc2ccc(F)cc2)cc1 | 32.5 µM (inactive) |
| COc1ccc2oc(=N)c(C(=O)Nc3ccccc3)cc2c1 | 64.6 µM (inactive) |
| COc1ccc2c(c1)CN1CCc3c(cc(OC)c(OC)c3OC)C1C2 (stereo not drawn) | 68.5 µM (inactive) |
| O=c1[nH]c(=O)n(COCc2ccccc2)c2ccsc12 | > 100 µM (inactive) |
| CC(NC(=O)/C(=C/c1ccccc1O)NC(=O)c1ccccc1)C(=O)O (stereo not drawn) | 73.5 µM (inactive) |
| CCOc1ccc(N/C(=C(/C(Cl)=C(/Cl)N(CC)CC)[N+](=O)[O-])n2nnc3ccccc32)cc1 | 26.4 µM (inactive) |
| O=C(c1cccs1)N1CCc2ccccc2C1 | > 100 µM (inactive) |
| COCC1OC(OC2OCC3OC4(OCC(O)(C(C)OC)C5OCOC54)OC3C2OC)C(OC)C(O)C1OC1OC(C)C(OC)C(OC2OC(C)C3OC4(CC(O)C(OC5CC(OC6CC(C)([N+](=O)[O-])C(OC)C(C)O6)C(OC(=O)c6c(C)c(Cl)c(O)c(Cl)c6OC)C(C)O5)C(C)O4)OC3(C)C2O)C1O (stereo not drawn) | > 100 µM (inactive) |
| CC1(C)CC(=O)C(C(c2cccc(O)c2O)C2C(=O)CC(C)(C)CC2=O)C(=O)C1 | > 100 µM (inactive) |
| c1csc(-c2csc(-c3ccsc3)c2)c1 | > 100 µM (inactive) |
| CC(C)CC(NC(=O)C(CCC(=O)OCc1ccccc1)NC(=O)OC(C)(C)C)C(=O)NC(COCc1ccccc1)C(=O)NC(Cc1ccccc1)C(=O)Oc1c(Cl)c(Cl)c(Cl)c(Cl)c1Cl (stereo not drawn) (Boc-E(OBn)LS(Bn)F-X27; configuration not given here) | 35.6 µM (inactive) |
| O=C1CCc2ccc(O)c(c2)Oc2ccc(cc2)[C@@H]2O[C@@H]2CO1 | 89.3 µM (inactive) |
| O=c1[nH]c2nc[nH]c2c(=O)n1C1CCCCC1 | > 100 µM (inactive) |
| O=C(c1cccc(C(=O)c2ccc3c4c(cccc24)C(=O)N(c2ccccc2)C3=O)c1)c1ccc2c3c(cccc13)C(=O)N(c1ccccc1)C2=O | > 100 µM (inactive) |
| C=C(CO)CC(O)c1ccccc1 (stereo not drawn) | > 100 µM (inactive) |
| CC(C)OC(=S)Nc1ccc(Cl)c(/C=N/OC(C)(C)C)c1 | 14.4 µM (inactive) |
| COC(=O)C(Cc1ccccc1)NC(=O)C(CCCNC(=N)N)NC(=O)OCc1ccccc1 (stereo not drawn) | > 100 µM (inactive) |
| COCOC1/C=C/CCCCC(=O)C(C)C#CC1 (stereo not drawn) | 3.37 µM (inactive) |

###

Tested on: CCRF-CEM
Assay: NCI tumour cell line growth inhibition, 48 h
Active and inactive are the calls of the source. Rule as the data show it: active = GI50 up to about 1.1 µM and inactive = higher.
Labels: active, inactive

| Molecule | Target Or System | Label Value |
| --- | --- | --- |
| CN(C)CCNC(=O)c1cccc2[nH]c(-c3ccccn3)nc12 | CCRF-CEM | inactive |
| Cc1nc(-n2nc(-c3ccccc3)cc2-c2ccccc2)sc1C(=O)CC(=O)C(=O)Nc1ccc(Cl)c(Cl)c1 | CCRF-CEM | inactive |
| COc1ccc(/C=c2/[nH]c(=O)/c(=C\c3ccc(OCc4ccccc4)cn3)[nH]c2=O)cc1 | CCRF-CEM | inactive |
| O=c1ccc2c(Cl)sc(Cl)c2[nH]1 | CCRF-CEM | inactive |
| O=C(c1cccs1)N1CCc2ccccc2C1 | CCRF-CEM | inactive |
| OC(c1cccs1)c1cc2ccccc2s1 (stereo not drawn) | CCRF-CEM | inactive |
| COc1ccc(CC(N)=O)cc1OC | CCRF-CEM | inactive |
| Cc1ccc(/N=N/C(=N/NC(=O)c2cc(Cl)ccc2C(=O)c2ccccc2)c2ccc(N(CCC#N)CCC#N)cc2C)cc1 | CCRF-CEM | inactive |
| CCOC(=O)c1nn2c(nc1=O)sc1ccc3ccccc3c12 | CCRF-CEM | inactive |
| C/C(CC(O)(C(F)(F)F)C(F)(F)F)=N\NC(N)=S | CCRF-CEM | inactive |
| COC(=O)C(Cc1ccccc1)NC(=O)C(CCCNC(=N)N)NC(=O)OCc1ccccc1 (stereo not drawn) | CCRF-CEM | inactive |
| CC[C@@]1(CCC(=O)NCCc2c[nH]c3ccccc23)CCC(=O)N2CCc3c([nH]c4ccccc34)[C@H]21 | CCRF-CEM | inactive |
| OCCSCc1ccccc1 | CCRF-CEM | inactive |
| O=C(Cc1nc2ccc(C(=O)c3ccccc3)cc2nc1O)C(=O)Nc1ccccc1[N+](=O)[O-] | CCRF-CEM | inactive |
| CCc1cccc(C)c1NC(=O)C1=C(C)NC(C)=C(C(=O)Nc2c(C)cccc2CC)C1c1ccc2c(c1)OCO2 | CCRF-CEM | inactive |
| O=C(OCC(OC(=O)c1ccccc1)C1CC(C2(O)CCCCC2)C(=O)O1)c1ccccc1 (stereo not drawn) | CCRF-CEM | inactive |
| Cc1c2c(C(N)=O)nccc2c(C)c2c1c1ccccc1n2Cc1ccccc1 | CCRF-CEM | inactive |
| COc1ccc(/C(=N/O)c2ccccc2-c2nc3ccccc3c(=O)n2-c2ccc(S(=O)(=O)Nc3ncccn3)cc2)cc1C | CCRF-CEM | inactive |
| CC(=O)O[C@H]1CC[C@@]2(C)C(=CC[C@@H]3[C@@H]2CC[C@]2(C)c4c(C)nn(-c5ccccc5)c4C[C@@H]32)C1 | CCRF-CEM | inactive |
| NC(=O)NNC(=O)CCn1[nH]c(=O)c(Cl)c(Cl)c1=O | CCRF-CEM | inactive |
| Cc1ccc(S(=O)(=O)NC(=O)NCC(=O)O)cc1 | CCRF-CEM | inactive |
| CCOC(=O)c1c(NC(=O)c2ccc(OC)cc2)sc2c1CCCC2 | CCRF-CEM | inactive |
| COc1ccccc1C[C@@H]1OC2(C=CC(=O)CC2SC(=O)c2ccccc2)O[C@H]1Cc1ccccc1OC (stereo partly drawn) | CCRF-CEM | active |
| CN(C)CCCn1cnc2cc(Cl)c(Cl)cc21 | CCRF-CEM | inactive |
| CN(C)CCNC(=O)c1cccc2c(NCCN(C)C)c3ccccc3nc12 | CCRF-CEM | inactive |
| O=c1ccn(C/C=C/c2ccccc2)c(=S)n1C/C=C/c1ccccc1 | CCRF-CEM | inactive |
| CC(=O)C(=Cc1ccc(C=C(C(C)=O)C(C)=O)cc1)C(C)=O | CCRF-CEM | active |
| C=CCC1(C#N)C(=S)NC2=C(C(=O)CC(C)(C)C2)C1c1ccccc1 (stereo not drawn) | CCRF-CEM | inactive |
| Cn1cnc2c(OCC3CCCCC3)nc(N)nc21 | CCRF-CEM | inactive |
| CCOc1ccccc1NC(=O)CC1C(=O)Nc2ccccc2[S+]1[O-] (stereo not drawn) | CCRF-CEM | inactive |
| COCC1OC(OC2OCC3OC4(OCC(O)(C(C)OC)C5OCOC54)OC3C2OC)C(OC)C(O)C1OC1OC(C)C(OC)C(OC2OC(C)C3OC4(CC(O)C(OC5CC(OC6CC(C)([N+](=O)[O-])C(OC)C(C)O6)C(OC(=O)c6c(C)c(Cl)c(O)c(Cl)c6OC)C(C)O5)C(C)O4)OC3(C)C2O)C1O (stereo not drawn) | CCRF-CEM | inactive |
| CCCCCCCCCCCCCCCCCCNc1ccn(C2OC(CO)C(OP(=O)(O)OCC(COP(=O)(O)OCC3OC(n4cc(F)c(NCCCCCCCCCCCCCCCCCC)nc4=O)CC3O)OC(=O)CCCCCCCCCCCCCCC)C2O)c(=O)n1 (stereo not drawn) | CCRF-CEM | inactive |
| CCCCCCCCCCCCCCCC(=O)NCC(OCC)OCC | CCRF-CEM | inactive |
| CN(C(=O)C12C3(C(=O)C(C)(C)C)C4C5(C#N)C3C1(C(=O)C(C)(C)C)C5C42C(=O)C(C)(C)C)C(C)(C)C (stereo not drawn) | CCRF-CEM | inactive |
| CCCCCCCCCCCCCCCCNC(=O)/C(O)=C/C(=O)c1ccc(C)cc1 | CCRF-CEM | inactive |
| C/C1=C/C2=CC(C)C[C@@H]2C(=O)[C@]2(C)C(=O)CC(C)(C)[C@H]2CC1=O (stereo partly drawn) | CCRF-CEM | inactive |
| O=C(NCc1ccccc1)C1C(=O)C(=O)N(Cc2ccccc2)C1=O (stereo not drawn) | CCRF-CEM | inactive |
| c1cc(-c2cn3c(n2)SCC3)ccn1 | CCRF-CEM | inactive |
